# credit: the supplement of paper PMC5908809

Tested on: SNK-6 (IL-2 2.5 ng/mL);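 note: normalised to DMSO-only wells as negative and benzethonium chloride as positive control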
ASSAY PROCEDURE: percent inhibition of viability; higher = more inhibition
CONDITION SET: 72 h; 10000 nM
In this section, each of the compounds is paired with its reported percent inhibition of viability.

CN1CCN(c2nc(C3=C(c4c[nH]c5ccccc45)C(=O)NC3=O)c3ccccc3n2)CC1 [Sotrastaurin] (max concentration tested 10000 nM)    44.5%
CC(C)[C@H](C(=O)Nc1ccc(C(=O)NO)cc1)c1ccccc1 [AR-42] (max concentration tested 10000 nM)    101%

Kindly consider the entry below.
// query percent inhibition of viability value for entry CN(C)CCN1C(=O)c2cccc3cc(N)cc(c23)C1=O [Amonafide] (max concentration tested 10000 nM)
99.5%
